# Tested on: S. aureus
# Experimental Details: Minimum inhibitory concentrations (MICs) for S. aureus of exemplary compounds (Table 2)
# Type: cell-based
# Run Conditions: Staphylococcus aureus, minimum inhibitory concentrations for S. aureus; read-out: MICs
Task for the reader: assign each of the following compounds its reported MIC.
Give bare numbers, in µg/mL.

| Compound | Unit Descriptor | MIC |
| --- | --- | --- |
| CC(=O)NC[C@H]1CN(c2ccc(-c3ccc(CNCc4nnn(C)n4)cc3)c(F)c2)C(=O)O1 | µg/mL | 0.25 |
| CC(=O)NC[C@H]1CN(c2ccc(-c3ccc(CNCc4cnoc4)nc3)c(F)c2)C(=O)O1 | µg/mL | 2 |
| CC(=O)NC[C@H]1CN(c2ccc(-c3ccc(CN(C)Cc4cccnc4)cc3)c(F)c2)C(=O)O1 | µg/mL | 2 |
| CC(=O)NC[C@H]1CN(c2ccc(-c3ccc(CNCc4sccc4C)cc3)c(F)c2)C(=O)O1 | µg/mL | 4 |
| CC(=O)NC[C@H]1CN(c2ccc(-c3ccc(CSc4ncn[nH]4)cc3)c(F)c2)C(=O)O1 | µg/mL | 0.25 |
| CC(=O)NC[C@H]1CN(c2ccc(-c3ccc(CNCC4CO4)cc3)c(F)c2)C(=O)O1 (some centres unmarked) | µg/mL | 4 |
| CC(=O)NC[C@H]1CN(c2ccc(-c3ccc(CNCC(F)(F)c4ccccn4)cc3)c(F)c2)C(=O)O1 | µg/mL | 4 |

Give recorded MIC with S. aureus for the following compound: `CC(=O)NC[C@H]1CN(c2ccc(-c3ccc(NC(=O)NCCCn4ccnc4)cc3)c(F)c2)C(=O)O1`
16
